tested on: CCRF-CEM; assay: Antiproliferative activity against human CCRF-CEM cell line; type: functional, cell-based
Reported IC50 values are given for each entry in this list.
A number alone suffices; assume nM.

Consider the reported IC50 for these molecules:
MOLECULE	IC50, nM
COc1ccc(Nc2c3ccccc3nc3c(OCCN(CCCl)CCCl)cccc23)cc1N	12.3
COc1cc(N)cc(Nc2c3ccccc3nc3c(OCCN(CCCl)CCCl)cccc23)c1	11.9
COc1ccc(Nc2c3ccccc3nc3c(OCCCCN(CCCl)CCCl)cccc23)cc1N	5.9
ClCCN(CCCl)CCCCOc1cccc2cc3ccccc3nc12	51.2
CC(=O)O[C@H]1C(=O)[C@@]2(C)[C@H]([C@H](OC(=O)c3ccccc3)[C@]3(O)C[C@H](OC(=O)[C@H](O)[C@@H](NC(=O)c4ccccc4)c4ccccc4)C(C)=C1C3(C)C)[C@]1(OC(C)=O)CO[C@@H]1C[C@@H]2O [PACLITAXEL]	1.1

query: # IC50 lookup, item Cc1ccc(N)cc1Nc1c2ccccc2nc2c(OCCCCN(CCCl)CCCl)cccc12
result: 4.3

query: # IC50 lookup, item COc1cc(N)cc(Nc2c3ccccc3nc3c(OCCCCN(CCCl)CCCl)cccc23)c1
result: 4.2

query: # IC50 lookup, item CCOC(=O)Nc1cc(CO)cc(Nc2c3ccccc3nc3c(OCCN(CCCl)CCCl)cccc23)c1
result: 25.7

query: # IC50 lookup, item Cc1cc(N)cc(Nc2c3ccccc3nc3c(OCCN(CCCl)CCCl)cccc23)c1
result: 4.1

query: # IC50 lookup, item OCc1cc(O)cc(Nc2c3ccccc3nc3c(OCCCCN(CCCl)CCCl)cccc23)c1
result: 5.9

###

test system: A549; assay: Antiproliferative activity against human A549 cell line; format: functional, cell-based
Reported pIC50 values are given for each entry in this list.
Schema: pIC50 number; meaning minus log10 of the concentration expressed in molar units.

Consider the reported pIC50 for these compounds:
COMPOUND_STRUCTURE	pIC50
Nc1cc(CO)cc(Nc2c3ccccc3nc3c(OCCN(CCCl)CCCl)cccc23)c1	7.49
Nc1cc(CO)cc(Nc2c3ccccc3nc3c(OCCCCN(CCCl)CCCl)cccc23)c1	8.28
Cc1ccc(N)cc1Nc1c2ccccc2nc2c(OCCN(CCCl)CCCl)cccc12	7.50
OCc1cc(O)cc(Nc2c3ccccc3nc3c(OCCCCN(CCCl)CCCl)cccc23)c1	7.60

query: # pIC50 lookup, item CCOC(=O)Nc1cc(CO)cc(Nc2c3ccccc3nc3c(OCCN(CCCl)CCCl)cccc23)c1
result: 7.03

query: # pIC50 lookup, item Cc1cc(N)cc(Nc2c3ccccc3nc3c(OCCCCN(CCCl)CCCl)cccc23)c1
result: 8.05

query: # pIC50 lookup, item ClCCN(CCCl)CCCCOc1cccc2cc3ccccc3nc12
result: 6.65

query: # pIC50 lookup, item ClCCN(CCCl)CCOc1cccc2cc3ccccc3nc12
result: 6.86

query: # pIC50 lookup, item CC[C@]1(O)C[C@@H]2CN(CCc3c([nH]c4ccccc34)[C@@](C(=O)OC)(c3cc4c(cc3OC)N(C)[C@H]3[C@@](O)(C(=O)OC)[C@H](OC(C)=O)[C@]5(CC)C=CCN6CC[C@]43[C@@H]65)C2)C1
result: 8.96
